# Test system: CCRIS mutagenicity, Ames/micronucleus/aberration tests
# experimentalProtocol: CCRIS mutagenicity studies
# runParameters: Test System: AMES SALMONELLA TYPHIMURIUM; Strain/Indicator: TA1537; Metabolic Activation: HAMSTER, LIVER, S-9, AROCLOR 1254 (10%); Method: PREINCUBATION
Activity calls are given as the source filed them. How the calls were made is not given here.
Permitted responses: active, inactive

GET /call?item= O=C1NC(=O)C(c2ccccc2)(c2ccccc2)N1 returns the recorded outcome of this test.
inactive

Name the outcome recorded for C1=CC2C3C=CC(C3)C2C1 (centres undefined) in the assay.
inactive

GET /call?item= CC(=O)C(N=Nc1ccc(-c2ccc(N=NC(C(C)=O)C(=O)Nc3ccccc3)c(Cl)c2)cc1Cl)C(=O)Nc1ccccc1 (centres undefined) returns the recorded outcome of this test.
inactive

Next:
Could you please tell me the result logged for COc1c(C(C)(C)C)cc([N+](=O)[O-])c(C)c1[N+](=O)[O-] in this assay?
inactive

Each compound tested received a call. Report the one for CCCCNCC .
inactive

Look up the recorded call for Nc1ccc(N)c2ccccc12 in this test.
inactive
